Biological target: MCH receptor (Homo sapiens)
Construct: expressed in transfected cells; host or cells: CHO cells
Sequence (Q99705 whole entry): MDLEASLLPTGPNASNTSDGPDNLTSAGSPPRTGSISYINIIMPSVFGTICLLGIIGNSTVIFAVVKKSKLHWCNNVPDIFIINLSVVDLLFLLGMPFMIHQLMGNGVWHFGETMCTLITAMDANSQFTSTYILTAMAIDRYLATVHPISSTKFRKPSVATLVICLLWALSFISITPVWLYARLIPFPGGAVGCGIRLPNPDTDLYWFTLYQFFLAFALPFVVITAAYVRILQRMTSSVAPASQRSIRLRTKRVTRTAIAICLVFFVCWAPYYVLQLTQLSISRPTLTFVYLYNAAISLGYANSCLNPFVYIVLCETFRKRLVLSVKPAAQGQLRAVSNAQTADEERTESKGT
Assay: MCH Receptor Binding Assay ([125I]-MCH, SPA, membranes from CHO cells expressing the MCH receptor)
Conditions: MCH Receptor Antagonist Activity; rated A/B/C; read-out: Av. MCH Ki
pKi: −log10 of the molar value.
MEASUREMENT_NAME: pKi

COMPOUND: CCN(CC)C(=O)N1CCC(C2c3ccc(-c4cccc(C#N)c4)cc3CCN2CC(=O)Nc2cc(Cl)cc(Cl)c2)CC1 (stereo not drawn)
pKi: 6.30 to 7.00
//
COMPOUND: O=C(CN1CCc2cc(-c3cccc(-c4ncc[nH]4)c3)ccc2C1C1CCN(C2CCCC2)CC1)Nc1cc(Cl)cc(Cl)c1 (stereo not drawn)
pKi: 7.00 to 9.00
//
COMPOUND: O=C(CN1CCc2cc(-c3ccccc3)ccc2C1C1CCN(C2CCCC2)CC1)Nc1cc(Cl)cc(Cl)c1 (stereo not drawn)
pKi: 6.30 to 7.00
//
COMPOUND: O=C(CN1CCc2cc(-c3cccc4cccnc34)ccc2C1C1CCN(C2CCCC2)CC1)Nc1cc(Cl)cc(Cl)c1 (stereo not drawn)
pKi: < 6.30

Inquiry: Note pKi for the compound shown: CC(=O)N1CCC(C2c3ccc(-c4cccc(C#N)c4)cc3CCN2CC(=O)Nc2cc(Cl)cc(Cl)c2)CC1 (stereo not drawn)
Reply text: < 6.30

Inquiry: Note pKi for the compound shown: N#Cc1cccc(-c2ccc3c(c2)CCN(CC(=O)Nc2cc(Cl)cc(Cl)c2)C3C2CCN(Cc3ccccc3)CC2)c1 (stereo not drawn)
Reply text: 7.00 to 9.00

Inquiry: Note pKi for the compound shown: N#Cc1cccc(-c2ccc3c(c2)CCN(Cc2nc4ccccc4[nH]2)C3C2CCN(Cc3ccccc3)CC2)c1 (stereo not drawn)
Reply text: 6.30 to 7.00

Inquiry: Note pKi for the compound shown: CN(C)S(=O)(=O)N1CCC(C2c3ccc(-c4cccc(C#N)c4)cc3CCN2CC(=O)Nc2cc(Cl)cc(Cl)c2)CC1 (stereo not drawn)
Reply text: 6.30 to 7.00

Inquiry: Note pKi for the compound shown: O=C(CN1CCc2cc(-c3cccc(OC(F)(F)F)c3)ccc2C1C1CCN(C2CCCC2)CC1)Nc1cc(Cl)cc(Cl)c1 (stereo not drawn)
Reply text: 7.00 to 9.00

Inquiry: Note pKi for the compound shown: N#Cc1cccc(-c2ccc3c(c2)CCN(Cc2nc4cc(F)c(Cl)cc4[nH]2)C3C2CCN(Cc3ccccc3)CC2)c1 (stereo not drawn)
Reply text: 7.00 to 9.00

Origin of measurements: patent US7498441B2
